// data source = patent US9458463B2

// each record: one item and its pIC50 for full length GRK5 (Homo sapiens, UniProt P34947)
pIC50: −log10 of the molar value.

// known answers, use as guide
- molecule: "CCC(NC(=O)c1ccc2c(c1)/C(=C/c1[nH]c(C)c(C(=O)NCCN3CCCC3)c1C)C(=O)N2)c1ccc(F)c(F)c1 (stereo not shown)"
  pIC50: "6.00 to 7.00"
- molecule: "CCC(NC(=O)c1ccc2c(c1)/C(=C/c1[nH]c(C)c(CCC(=O)O)c1C)C(=O)N2)c1cccc(Cl)c1 (stereo not shown)"
  pIC50: "5.70 to 6.00"
- molecule: "C[C@@H](NC(=O)c1ccc2c(c1)/C(=C/Nc1ccc(CN3CCCCC3)cc1)C(=O)N2)c1ccc(Cl)cc1"
  pIC50: "6.00 to 7.00"
- molecule: "CCC(NC(=O)c1ccc2c(c1)/C(=C/c1[nH]c(C)c(CCC(=O)O)c1C)C(=O)N2)c1ccc(Cl)cc1 (stereo not shown)"
  pIC50: "6.00 to 7.00"
- molecule: "Cc1[nH]c(/C=C2\\C(=O)Nc3ccc(C(=O)N[C@H](C)c4ccccc4)cc32)c(C)c1C(=O)N1CCN(C)CC1"
  pIC50: "5.70 to 6.00"
- molecule: "CC[C@@H](NC(=O)c1ccc2c(c1)/C(=C/c1[nH]c(C)c(C(=O)N3CCC[C@@H]3CN3CCCC3)c1C)C(=O)N2)c1ccccc1"
  pIC50: "6.00 to 7.00"

Now for a further molecule.
Answer briefly: pIC50 recorded on full length GRK5 (Homo sapiens, UniProt P34947) for CC[C@@H](NC(=O)c1ccc2c(c1)/C(=C/c1[nH]c(C)c(C(=O)N3CCCCC3)c1C)C(=O)N2)c1ccccc1 6.00 to 7.00

###

system: beta-TC6 insulinoma cells; assay: Insulin release by beta-TC6 cells, rat/mouse insulin ELISA, high glucose; assay type: cell-based; conditions: Mus musculus, Beta-TC6, 2 h, group II; 5 μM, 2 h, high glucose (4.5 g/L); % increase in regard to DMSO control (set at 0%)
Quick list: activation at 5 µM per entry.
# output: bare number, implied unit %

Some solved cases for reference:
- compound: "Cc1cccc(C(C)NC(=O)c2ccc3c(c2)/C(=C/c2[nH]c(C)c(C(=O)N4CCN(C)CC4)c2C)C(=O)N3)c1 (stereo not shown) [II.51]"
  measured.metric: "activation at 5 µM"
  observed.result: 252
- compound: "CC[C@@H](NC(=O)c1ccc2c(c1)/C(=C/c1[nH]c(C)c(CCC(=O)NCCN(CC)CC)c1C)C(=O)N2)c1ccccc1 [II.131]"
  measured.metric: "activation at 5 µM"
  observed.result: 134
- compound: "CC[C@@H](NC(=O)c1ccc2c(c1)/C(=C/c1[nH]c(C)c(CCC(=O)O)c1C)C(=O)N2)c1ccccc1 [II.130]"
  measured.metric: "activation at 5 µM"
  observed.result: 103
- compound: "Cc1[nH]c(/C=C2\\C(=O)Nc3ccc(C(=O)N[C@H](C)c4ccc(Cl)cc4)cc32)c(C)c1C(=O)N1CCCC1 [II.67]"
  measured.metric: "activation at 5 µM"
  observed.result: 159
- compound: "CCC(NC(=O)c1ccc2c(c1)/C(=C/c1[nH]c(C)c(C(=O)NCCN3CCCC3)c1C)C(=O)N2)c1cccc(Cl)c1 (stereo not shown) [II.11]"
  measured.metric: "activation at 5 µM"
  observed.result: 96
- compound: "CCC(NC(=O)c1ccc2c(c1)/C(=C/c1[nH]c(C)c(C(=O)NCCN3CCCC3)c1C)C(=O)N2)c1ccc(F)c(F)c1 (stereo not shown) [II.10]"
  measured.metric: "activation at 5 µM"
  observed.result: 164
- compound: "CCC(NC(=O)c1ccc2c(c1)/C(=C/c1[nH]c(C)c(C(=O)N3CCN(C)CC3)c1C)C(=O)N2)c1ccc(Cl)cc1 (stereo not shown) [II.12]"
  measured.metric: "activation at 5 µM"
  observed.result: 214
- compound: "CCC(NC(=O)c1ccc2c(c1)/C(=C/c1[nH]c(C)c(CCC(=O)O)c1C)C(=O)N2)c1ccc(F)c(F)c1 (stereo not shown) [II.133]"
  measured.metric: "activation at 5 µM"
  observed.result: 131
- compound: "CCC(NC(=O)c1ccc2c(c1)/C(=C/c1[nH]c(C)c(CCC(=O)O)c1C)C(=O)N2)c1ccc(Cl)cc1 (stereo not shown) [II.132]"
  measured.metric: "activation at 5 µM"
  observed.result: 117

Moving on to the next compound.
Look up activation at 5 µM of Cc1ccc([C@@H](C)NC(=O)c2ccc3c(c2)/C(=C/c2[nH]c(C)c(C(=O)N4CCN(C)CC4)c2C)C(=O)N3)cc1 [II.32] and report it. 143
